tested on: HCC-78; assay: relative viability (nuclei count vs DMSO), 5 days (fraction); higher = more cells survive; conditions: first compound 158.11 µM
metric.name: relative viability
Field format: numeric only.

# input Tell me measured relative viability for O=C(O)CCCCC(CCSCc1ccccc1)SCc1ccccc1 (centres undefined) [CPI-613] + C[C@]1(O)C[C@@H](c2nc(-c3ccc4ccc(-c5ccccc5)nc4c3)c3c(N)nccn32)C1 [Linsitinib] (partner 1 µM) please.
# output 0.573

# input Quote relative viability reported for O=C(O)CCCCC(CCSCc1ccccc1)SCc1ccccc1 (centres undefined) [CPI-613] + CS(=O)(=O)N1CCN(Cc2cc3nc(-c4cccc5[nH]ncc45)nc(N4CCOCC4)c3s2)CC1 [Pictilisib] (partner 1 µM) please.
# output 0.156

# input Give the reported value of relative viability for this record: O=C(O)CCCCC(CCSCc1ccccc1)SCc1ccccc1 (centres undefined) [CPI-613] + O=C(CCCCCCC(=O)Nc1ccccc1)NO [Vorinostat] (partner 1 µM)
# output 0.393

# input Answer with the recorded relative viability for the compound listed here: O=C(O)CCCCC(CCSCc1ccccc1)SCc1ccccc1 (centres undefined) [CPI-613] + Cc1nc(NC(=O)N2CCC[C@H]2C(N)=O)sc1-c1ccnc(C(C)(C)C(F)(F)F)c1 [Alpelisib] (partner 2 µM)
# output 0.338

----------
test system: SW 1573; assay: relative viability (nuclei count vs DMSO), 5 days (fraction); higher = more cells survive; conditions: first compound 0.08 µM
metric.name: relative viability

# input Return reported relative viability for target or system SW 1573, item Cc1cnc(-c2cnc(NCCNc3ccc(C#N)cn3)nc2-c2ccc(Cl)cc2Cl)[nH]1 + CCNC(=O)c1noc(-c2cc(C(C)C)c(O)cc2O)c1-c1ccc(CN2CCOCC2)cc1 [Luminespib] (partner 0.01 µM) .
# output 0.162

# input Report the value of relative viability obtained on SW 1573 for Cc1cnc(-c2cnc(NCCNc3ccc(C#N)cn3)nc2-c2ccc(Cl)cc2Cl)[nH]1 + COc1cc2c(Oc3ccc(NC(=O)C4(C(=O)Nc5ccc(F)cc5)CC4)cc3F)ccnc2cc1OCCCN1CCOCC1 [Foretinib] (partner 0.25 µM) .
# output 0.929

----------
test system: NCI-H1993; test: relative viability (nuclei count vs DMSO), 5 days (fraction); higher = more cells survive; details: first compound 0.02 µM
metric.name: relative viability

# input Could you please provide reported relative viability for CC(=O)O[C@@]12CO[C@@H]1C[C@H](O)[C@@]1(C)C(=O)[C@H](O)C3=C(C)[C@@H](OC(=O)[C@H](O)[C@@H](NC(=O)OC(C)(C)C)c4ccccc4)C[C@@](O)([C@@H](OC(=O)c4ccccc4)[C@H]21)C3(C)C [Docetaxel] + CC(=O)c1c(C)c2cnc(Nc3ccc(N4CCNCC4)cn3)nc2n(C2CCCC2)c1=O [Palbociclib] (partner 0.5 µM) ? Thanks!
# output 0.307

# input Please indicate relative viability recorded for CC(=O)O[C@@]12CO[C@@H]1C[C@H](O)[C@@]1(C)C(=O)[C@H](O)C3=C(C)[C@@H](OC(=O)[C@H](O)[C@@H](NC(=O)OC(C)(C)C)c4ccccc4)C[C@@](O)([C@@H](OC(=O)c4ccccc4)[C@H]21)C3(C)C [Docetaxel] + O=C(CCCCCCC(=O)Nc1ccccc1)NO [Vorinostat] (partner 1 µM)
# output 0.246

----------
test system: UMC-11; assay: relative viability (nuclei count vs DMSO), 5 days (fraction); higher = more cells survive; details: first compound 0.01581 µM
Binary call on relative viability with cut-off 0.5: strictly below means Criterion met, and equality or higher means Criterion not met.

# input Decide: relative viability of COc1cc2nccc(Oc3ccc(NC(=O)Nc4cc(C)on4)c(Cl)c3)c2cc1OC [Tivozanib] + Cc1nc(Nc2ncc(C(=O)Nc3c(C)cccc3Cl)s2)cc(N2CCN(CCO)CC2)n1 [Dasatinib] (partner 0.075 µM) strictly below 0.5?
# output Criterion met

# input Threshold test, relative viability < 0.5: COc1cc2nccc(Oc3ccc(NC(=O)Nc4cc(C)on4)c(Cl)c3)c2cc1OC [Tivozanib] + O=C(c1cc(Cc2n[nH]c(=O)c3ccccc23)ccc1F)N1CCN(C(=O)C2CC2)CC1 [Olaparib] (partner 8 µM)
# output Criterion met

# input API: query returns whether the molecule falls strictly under 0.5 in relative viability. Query: Nc1ccn([C@@H]2O[C@H](CO)[C@@H](O)[C@@H]2O)c(=O)n1 [Cytarabine] + CC1(C)CCC(c2ccc(Cl)cc2)=C(CN2CCN(c3ccc(C(=O)NS(=O)(=O)c4ccc(N[C@H](CCN5CCOCC5)CSc5ccccc5)c(S(=O)(=O)C(F)(F)F)c4)cc3)CC2)C1 [Navitoclax] (partner 0.5 µM)
# output Criterion met

# input Problem: For the molecule Nc1ccn([C@@H]2O[C@H](CO)[C@@H](O)[C@@H]2O)c(=O)n1 [Cytarabine] + Cc1nc(NC(=O)N2CCC[C@H]2C(N)=O)sc1-c1ccnc(C(C)(C)C(F)(F)F)c1 [Alpelisib] (partner 2 µM) , is relative viability under 0.5?
# output Criterion met

# input I wonder whether Nc1ccn([C@@H]2O[C@H](CO)[C@@H](O)[C@@H]2O)c(=O)n1 [Cytarabine] + CC(=O)c1c(C)c2cnc(Nc3ccc(N4CCNCC4)cn3)nc2n(C2CCCC2)c1=O [Palbociclib] (partner 0.5 µM) has relative viability below 0.5. Can you tell?
# output Criterion met

# input Just wondering, is relative viability of COc1cc2nccc(Oc3ccc(NC(=O)Nc4cc(C)on4)c(Cl)c3)c2cc1OC [Tivozanib] + CC(=O)Nc1cccc(-n2c(=O)n(C3CC3)c(=O)c3c(Nc4ccc(I)cc4F)n(C)c(=O)c(C)c32)c1 [Trametinib] (partner 0.02 µM) below 0.5?
# output Criterion not met

# input Regarding Nc1ccn([C@@H]2O[C@H](CO)[C@@H](O)[C@@H]2O)c(=O)n1 [Cytarabine] + COc1cc2c(Oc3ccc(NC(=O)C4(C(=O)Nc5ccc(F)cc5)CC4)cc3F)ccnc2cc1OCCCN1CCOCC1 [Foretinib] (partner 0.25 µM) , kindly confirm whether its relative viability is beneath 0.5.
# output Criterion not met

# input Check if relative viability falls below 0.5 for COc1cc2nccc(Oc3ccc(NC(=O)Nc4cc(C)on4)c(Cl)c3)c2cc1OC [Tivozanib] + CC(=O)c1c(C)c2cnc(Nc3ccc(N4CCNCC4)cn3)nc2n(C2CCCC2)c1=O [Palbociclib] (partner 0.5 µM) .
# output Criterion met

# input Is 0.5 strictly greater than the molecule's reported relative viability? molecule: COc1cc2nccc(Oc3ccc(NC(=O)Nc4cc(C)on4)c(Cl)c3)c2cc1OC [Tivozanib] + N=C(N)NC(=N)NCCc1ccccc1 [Phenformin] (partner 250 µM)
# output Criterion met

# input Strictly below 0.5: is that where relative viability of COc1cc2nccc(Oc3ccc(NC(=O)Nc4cc(C)on4)c(Cl)c3)c2cc1OC [Tivozanib] + C[C@]1(O)C[C@@H](c2nc(-c3ccc4ccc(-c5ccccc5)nc4c3)c3c(N)nccn32)C1 [Linsitinib] (partner 1 µM) sits?
# output Criterion not met

----------
test system: NCI-H1915; test: relative viability (nuclei count vs DMSO), 5 days (fraction); higher = more cells survive; details: first compound 0.000632 µM
Exercise: for every item that follows, state its recorded relative viability.

# input Enter relative viability (test system NCI-H1915) for CC(=O)O[C@@]12CO[C@@H]1C[C@H](O)[C@@]1(C)C(=O)[C@H](O)C3=C(C)[C@@H](OC(=O)[C@H](O)[C@@H](NC(=O)OC(C)(C)C)c4ccccc4)C[C@@](O)([C@@H](OC(=O)c4ccccc4)[C@H]21)C3(C)C [Docetaxel] + CS(=O)(=O)N1CCN(Cc2cc3nc(-c4cccc5[nH]ncc45)nc(N4CCOCC4)c3s2)CC1 [Pictilisib] (partner 1 µM)
# output 0.931

# input Give measured relative viability for CC(=O)O[C@@]12CO[C@@H]1C[C@H](O)[C@@]1(C)C(=O)[C@H](O)C3=C(C)[C@@H](OC(=O)[C@H](O)[C@@H](NC(=O)OC(C)(C)C)c4ccccc4)C[C@@](O)([C@@H](OC(=O)c4ccccc4)[C@H]21)C3(C)C [Docetaxel] + CCNC(=O)c1noc(-c2cc(C(C)C)c(O)cc2O)c1-c1ccc(CN2CCOCC2)cc1 [Luminespib] (partner 0.01 µM) (NCI-H1915).
# output 0.796

----------
For each record, write down the corresponding relative viability.
tested on: LCLC-103H; experiment: relative viability (nuclei count vs DMSO), 5 days (fraction); higher = more cells survive; conditions: first compound 50 µM
Number only, please.

# input Tell me its relative viability given O=C(O)CCCCC(CCSCc1ccccc1)SCc1ccccc1 (stereo not drawn) [CPI-613] + COc1cc2c(Oc3ccc(NC(=O)C4(C(=O)Nc5ccc(F)cc5)CC4)cc3F)ccnc2cc1OCCCN1CCOCC1 [Foretinib] (partner 0.25 µM) as the entry.
# output 0.805

# input Please report the measured relative viability for O=C(O)CCCCC(CCSCc1ccccc1)SCc1ccccc1 (stereo not drawn) [CPI-613] + Cc1nc(NC(=O)N2CCC[C@H]2C(N)=O)sc1-c1ccnc(C(C)(C)C(F)(F)F)c1 [Alpelisib] (partner 2 µM)
# output 0.883

# input Item O=C(O)CCCCC(CCSCc1ccccc1)SCc1ccccc1 (stereo not drawn) [CPI-613] + COc1cccc2cc(-c3nc([C@H]4CC[C@H](C(=O)O)CC4)n4ncnc(N)c34)[nH]c12 [OSI-027] (partner 0.5 µM) : provide relative viability
# output 0.345
